Entry source: ChEMBL document CHEMBL3124871

# System Name: Thyroid hormone receptor alpha (Homo sapiens)
# Sequence (P10827 whole entry): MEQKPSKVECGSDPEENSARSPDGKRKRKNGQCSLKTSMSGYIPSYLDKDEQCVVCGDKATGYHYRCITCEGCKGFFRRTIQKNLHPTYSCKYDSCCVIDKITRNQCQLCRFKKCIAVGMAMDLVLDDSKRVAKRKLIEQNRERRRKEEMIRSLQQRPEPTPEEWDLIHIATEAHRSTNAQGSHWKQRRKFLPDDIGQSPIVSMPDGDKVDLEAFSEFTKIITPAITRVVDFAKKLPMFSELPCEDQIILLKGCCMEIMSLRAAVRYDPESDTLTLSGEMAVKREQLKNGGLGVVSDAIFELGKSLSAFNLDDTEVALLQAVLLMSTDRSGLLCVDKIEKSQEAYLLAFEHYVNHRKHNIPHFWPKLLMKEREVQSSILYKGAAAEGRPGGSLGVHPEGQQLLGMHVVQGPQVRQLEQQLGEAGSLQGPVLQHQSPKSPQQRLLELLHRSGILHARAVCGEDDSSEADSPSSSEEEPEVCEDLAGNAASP
# Test: Displacement of [125I]-Triiodothyronine from human recombinant TRalpha1 ligand binding domain after 2 to 3 hrs by beta counting
Give measured pIC50 for each item. Keep answers brief.
pIC50 is a log-scale quantity: -log10 of the concentration expressed in molar.

Query block: Give recorded pIC50. Cc1ccc(NC(=O)CC(=O)O)c2ccn(Cc3ccc(O)c(C(C)C)c3)c12
Result block: 5.28

Query block: Give recorded pIC50. Cc1ccc(NC(=O)C(=O)O)c2ccn(Cc3ccc(O)c(C(C)C)c3)c12
Result block: 6.72

Query block: Give recorded pIC50. Cc1c(CC(=O)NCC(=O)O)c2ccccc2n1Cc1ccc(O)c(C(C)C)c1
Result block: 5.09

Query block: Give recorded pIC50. Cc1cc2cc(NC(=O)C(=O)O)ccc2n1Cc1ccc(O)c(C(C)C)c1
Result block: 6.64

Query block: Give recorded pIC50. Cc1c(CCCC(=O)O)c2ccccc2n1Cc1ccc(O)c(C(C)C)c1
Result block: 5.47

Query block: Give recorded pIC50. Cc1cc2c(NC(=O)CC(=O)O)cccc2n1Cc1ccc(O)c(C(C)C)c1
Result block: 5.28

Query block: Give recorded pIC50. Cc1c(CCC(=O)O)c2ccccc2n1Cc1ccc(O)c(C(C)C)c1
Result block: 5.89
